# Assay target: human MCH-1R (human, UniProt Q99705 1-353)
# Sequence (Q99705 whole entry): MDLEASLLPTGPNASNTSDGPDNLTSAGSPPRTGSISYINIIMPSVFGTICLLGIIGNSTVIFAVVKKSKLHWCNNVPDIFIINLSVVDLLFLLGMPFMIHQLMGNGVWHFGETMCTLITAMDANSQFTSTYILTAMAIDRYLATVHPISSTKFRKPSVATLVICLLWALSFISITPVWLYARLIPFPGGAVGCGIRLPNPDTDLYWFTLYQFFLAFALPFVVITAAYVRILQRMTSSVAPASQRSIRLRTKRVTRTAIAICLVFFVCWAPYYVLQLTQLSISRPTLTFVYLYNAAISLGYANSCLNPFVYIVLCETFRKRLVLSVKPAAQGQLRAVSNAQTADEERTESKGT
# Method summary: cell-based or functional assay
Positions of bridges follow the written chain, without caps; N, C: chain ends. No end group written: not given here.
Property measured: Activation %, aequorin bioluminescence (%)
Respond numerically; units are % and should not be typed.

Below, 2 binders whose answers are already recorded.
| Binder | Activation %, aequorin bioluminescence, % |
| --- | --- |
| Ac-RCMLGRVYRPC-NH2 (disulfide 2-11 (inferred), also called ID; NO; parent compound) [Ac-hMCH(6-16)-NH2] | 99 |
| DFDMLRCMLGRVYRPCWQV (disulfide 7-16 (inferred)) [human MCH] | 100 |

Query: Would you kindly share the measured Activation %, aequorin bioluminescence for XCMLNRVYRPC (HELM PEPTIDE1{[ac].[dR].C.M.L.N.R.V.Y.R.P.C.[am]}$PEPTIDE1,PEPTIDE1,3:R3-12:R3$$$V2.0; SMILES CSCC[C@@H]1NC(=O)[C@@H](NC(=O)[C@@H](CCCNC(=N)N)NC(C)=O)CSSC[C@@H](C(N)=O)NC(=O)[C@@H]2CCCN2C(=O)[C@H](CCCNC(=N)N)NC(=O)[C@H](Cc2ccc(O)cc2)NC(=O)[C@H](C(C)C)NC(=O)[C@H](CCCNC(=N)N)NC(=O)[C@H](CC(N)=O)NC(=O)[C@H](CC(C)C)NC1=O) [SEQ. ID. NO. 29 (D-Arg^6, Asn^10 analog of Ac-hMCH(6-16)-NH2)] ?
Response: 120
